src = patent US20240199613A1

The entries below come with measured EC50 values attached.
# Target system: human activated kallikrein enzyme (Homo sapiens, UniProt P03952)
# Sequence (P03952 391-638 limits assumed): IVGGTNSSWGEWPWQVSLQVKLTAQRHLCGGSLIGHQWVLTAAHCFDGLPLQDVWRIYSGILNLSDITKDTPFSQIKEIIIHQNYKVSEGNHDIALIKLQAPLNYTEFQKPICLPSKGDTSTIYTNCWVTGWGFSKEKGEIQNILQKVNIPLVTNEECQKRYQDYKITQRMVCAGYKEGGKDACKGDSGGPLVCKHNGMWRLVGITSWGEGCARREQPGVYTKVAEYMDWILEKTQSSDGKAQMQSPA
# Sequence (P03952 20-390 partner limits assumed): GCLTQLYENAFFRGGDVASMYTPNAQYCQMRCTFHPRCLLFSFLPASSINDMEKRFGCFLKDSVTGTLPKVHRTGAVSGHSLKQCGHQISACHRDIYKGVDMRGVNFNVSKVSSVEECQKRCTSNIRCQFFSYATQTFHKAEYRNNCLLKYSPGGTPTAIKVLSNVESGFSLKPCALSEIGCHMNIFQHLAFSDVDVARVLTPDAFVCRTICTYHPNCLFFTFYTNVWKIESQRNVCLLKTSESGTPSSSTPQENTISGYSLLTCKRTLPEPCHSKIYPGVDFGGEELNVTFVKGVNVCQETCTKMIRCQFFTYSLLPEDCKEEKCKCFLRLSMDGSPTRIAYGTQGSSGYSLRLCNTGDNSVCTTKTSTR
# Procedure summary: Inhibition of activated plasma kallikrein, fluorogenic peptide substrate (PFR-AMC) assay, 500 pM enzyme format
# Particulars: 500 pM activated kallikrein, 300 uM PFR-AMC, 30 min preincubation, 10 min reaction, room temperature; read-out: Primary Dose Response Assay: Average EC50
# Method: Compounds were evaluated for inhibition of the human activated kallikrein enzyme in two formats of an assay employing a fluorogenic peptide substrate. […] After initiation with substrate, reactions were incubated for 10 min at room temperature and fluorescence emission at 460 nm from 380 nm excitation measured with a microplate reader. […]

Please review the following examples before continuing.
Look at this compound and give its reported EC50. CNc1cc([C@H]2C[C@@H]2c2nccc(C)n2)nc2cc(NCc3cn4cc(C5CC5)cc(N5CC(=O)N(C)C5=O)c4n3)ccc12 (racemic)
≤ 1 nM

Look at this compound and give its reported EC50. Cc1ccnc([C@H]2C[C@@H]2C2=CS(=O)(=O)c3ccc(NCc4cn5cc(C6CC6)ccc5n4)cc3N2)n1 (racemic)
≤ 1 nM

Look at this compound and give its reported EC50. Cc1ccnc([C@H]2C[C@@H]2c2cc(CC#N)c3ccc(NCc4cn5cc(C6CC6)cc(N6CC(=O)N(C)C6=O)c5n4)cc3n2)n1 (racemic)
≤ 1 nM

Look at this compound and give its reported EC50. Cc1ccnc([C@H]2C[C@@H]2c2ccc3c(N(C)C)cc(NCc4cn5cc(C6CC6)cc(N6CC(=O)N(C)C6=O)c5n4)cc3n2)n1 (racemic)
≤ 1 nM

Look at this compound and give its reported EC50. `COc1cc([C@H]2C[C@@H]2c2cccc(Cl)c2)nc2cc(NCc3cn4cc(C5CC5)cc(N5CC(=O)N(C)C5=O)c4n3)ncc12`
10 to 100 nM

# next compound below
Look at this compound and give its reported EC50. `Cc1ccnc([C@H]2C[C@@H]2c2cc(N3CCN(C)CC3)c3ccc(NCc4cn5cc(C6CC6)cc(N6CC(=O)N(C)C6=O)c5n4)cc3n2)n1`
≤ 1 nM
